Values compiled from ChEMBL document CHEMBL4196044.

Test: Cytotoxicity against human THP1 cells assessed as cell viability at 10 uM by CellTiter-Glo luminescent assay relative to control
Format: cell-based
Details: THP-1 cells, read-out: Activity
This listing pairs compounds with measured viability at 10 µM.
property name: viability at 10 µM (%)

# line notation, reported value
measured = [
    ("Fc1ccc(CNc2ncnc3nc[nH]c23)cc1", 92.9),
    ("Clc1ccc(Nc2ncnc3[nH]cnc23)cc1", 92),
    ("COc1cc(Cn2cnc3c(NCc4ccccc4Cl)ncnc32)cc(OC)c1", 90.2),
    ("COc1cccc(Nc2ncnc3[nH]cnc23)c1", 90.7),
    ("Oc1ccc(Nc2ncnc3[nH]cnc23)cc1", 95.9),
    ("CC(=O)NS(=O)(=O)c1ccc(Nc2ncnc3[nH]cnc23)cc1", 90.7),
    ("Fc1cc(Nc2ncnc3[nH]cnc23)ccc1Cl", 99.3),
    ("Clc1ccccc1CNc1ncnc2nc[nH]c12", 93.8),
    ("COc1ccc(Nc2ncnc3[nH]cnc23)cc1", 100),
    ("Clc1cccc(Nc2ncnc3[nH]cnc23)c1", 91),
    ("CCCn1cnc2c(NCc3ccccc3Cl)ncnc21", 103),
    ("c1nc2nc[nH]c(N3CCCC3)c-2n1", 91.1),
    ("c1coc(CNc2ncnc3[nH]cnc23)c1", 107),
]
